// reported protein stability index per item
B1: IQUB (parent)
chain: KIREKEEWIKLDYHRRHNPKTNED

# Variants of: B1
# test description: protein stability index of a GFP-peptide fusion (GPS, HEK-293T) (PSI 1-6); higher = more stable;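 note: lentivirally expressed fusions sorted by FACS into six bins by GFP to DsRed ratio, PSI derived from sequencing read proportions per bin multiplied by bin number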
# run conditions: c terminus: a fixed tail appended
reported endpoint: protein stability index

{"variant description": "H14V", "quantitative readout": 4.24}
{"variant description": "E23F", "quantitative readout": 4.45}
{"variant description": "H14I", "quantitative readout": 4.58}
{"variant description": "I2T", "quantitative readout": 4.69}
{"variant description": "E7L", "quantitative readout": 2.68}
{"variant description": "W8V", "quantitative readout": 5.07}
{"variant description": "R3S", "quantitative readout": 4.6}
{"variant description": "D24A", "quantitative readout": 3.91}
{"variant description": "E7N", "quantitative readout": 4.45}
{"variant description": "R16N", "quantitative readout": 4.91}
{"variant description": "P19H", "quantitative readout": 4.3}
{"variant description": "E23D", "quantitative readout": 5.01}
{"variant description": "K1E", "quantitative readout": 4.62}
{"variant description": "H14L", "quantitative readout": 4.1}
{"variant description": "R15K", "quantitative readout": 4.64}
{"variant description": "E6H", "quantitative readout": 3.98}
{"variant description": "E7D", "quantitative readout": 4.48}
{"variant description": "R3L", "quantitative readout": 4.22}
{"variant description": "K20A", "quantitative readout": 4.52}
{"variant description": "W8C", "quantitative readout": 4.93}
{"variant description": "N18E", "quantitative readout": 4.48}
{"variant description": "D12Y", "quantitative readout": 3.62}
{"variant description": "W8L", "quantitative readout": 4.94}
{"variant description": "N18D", "quantitative readout": 4.86}
{"variant description": "E7Q", "quantitative readout": 4.19}
{"variant description": "D12S", "quantitative readout": 3.59}
{"variant description": "P19T", "quantitative readout": 4.49}
{"variant description": "W8S", "quantitative readout": 5.41}
{"variant description": "L11K", "quantitative readout": 4.71}
{"variant description": "D24L", "quantitative readout": 3.53}
{"variant description": "P19Y", "quantitative readout": 4.06}
{"variant description": "H14D", "quantitative readout": 5.35}
{"variant description": "W8H", "quantitative readout": 4.99}
{"variant description": "W8N", "quantitative readout": 5.03}
{"variant description": "P19Q", "quantitative readout": 4.68}
{"variant description": "D24R", "quantitative readout": 3.89}
{"variant description": "T21Q", "quantitative readout": 4.75}
{"variant description": "N22I", "quantitative readout": 4.01}
{"variant description": "H17L", "quantitative readout": 4.67}
{"variant description": "I9C", "quantitative readout": 4.12}
{"variant description": "E4W", "quantitative readout": 3.75}
{"variant description": "E6S", "quantitative readout": 4.03}
{"variant description": "N18H", "quantitative readout": 4.27}
{"variant description": "T21V", "quantitative readout": 4.46}
{"variant description": "E23N", "quantitative readout": 4.24}
{"variant description": "D24S", "quantitative readout": 4.27}
{"variant description": "D24Y", "quantitative readout": 3.65}
{"variant description": "R3F", "quantitative readout": 4.3}
{"variant description": "R15G", "quantitative readout": 4.83}
{"variant description": "R15I", "quantitative readout": 4.29}
